- Target or test system: T1, EsCas13d, nuclease-dead (Eubacterium siraeum, UniProt B0MS50, R295A;H300A;R849A;H854A)
- T1 sequence: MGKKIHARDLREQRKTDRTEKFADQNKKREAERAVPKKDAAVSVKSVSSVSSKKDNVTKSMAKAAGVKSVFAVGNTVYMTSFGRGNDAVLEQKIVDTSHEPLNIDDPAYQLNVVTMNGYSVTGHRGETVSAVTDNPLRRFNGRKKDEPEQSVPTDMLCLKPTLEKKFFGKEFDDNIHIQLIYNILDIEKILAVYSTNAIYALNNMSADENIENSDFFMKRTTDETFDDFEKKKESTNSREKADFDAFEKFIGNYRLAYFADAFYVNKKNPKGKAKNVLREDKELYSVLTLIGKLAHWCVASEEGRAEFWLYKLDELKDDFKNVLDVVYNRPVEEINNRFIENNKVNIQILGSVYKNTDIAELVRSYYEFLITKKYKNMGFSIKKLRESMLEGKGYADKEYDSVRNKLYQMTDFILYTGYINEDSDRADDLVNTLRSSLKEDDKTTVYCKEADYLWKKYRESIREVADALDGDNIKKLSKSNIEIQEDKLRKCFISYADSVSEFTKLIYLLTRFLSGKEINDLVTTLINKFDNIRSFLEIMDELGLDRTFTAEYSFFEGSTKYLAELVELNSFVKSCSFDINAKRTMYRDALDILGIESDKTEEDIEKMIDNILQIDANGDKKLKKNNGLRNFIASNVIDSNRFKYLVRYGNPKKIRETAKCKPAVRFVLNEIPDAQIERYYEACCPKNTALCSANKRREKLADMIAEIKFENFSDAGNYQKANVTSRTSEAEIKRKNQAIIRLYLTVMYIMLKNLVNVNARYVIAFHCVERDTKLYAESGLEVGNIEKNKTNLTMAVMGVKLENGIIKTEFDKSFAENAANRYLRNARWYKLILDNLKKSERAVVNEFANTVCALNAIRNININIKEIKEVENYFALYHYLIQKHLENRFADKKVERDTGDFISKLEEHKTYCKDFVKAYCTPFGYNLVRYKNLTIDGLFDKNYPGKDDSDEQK
- Experiment notes: crRNA (strand 1, pre-loaded); Mg2+; 40 mM Tris-HCl pH 7.5, 150 mM NaCl, 6 mM MgCl2, 1 mM DTT, 0.1% Tween-20, 0.2 mg/ml BSA; 25 C; 10 min per concentration, then washed
- Condition: tags: His6-TwinStrep-SUMO cleaved; N-terminal SNAP kept (SNAP-Surface 488); label: 3' end held by stalled T7 RNA polymerase
Kindly state Kd for each of the entries shown.
Kindly provide the numeric value in nM only, without the unit symbol.

**Q:** Bench note: what Kd did target 1 insG 3' of 16,insG 3' of 2 (mixed) RNA 1: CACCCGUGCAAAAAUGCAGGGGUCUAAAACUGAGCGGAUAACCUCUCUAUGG RNA 2: GGGAAUGGAUCCACAUCUACGAAUUCGUACCAUAGAGGAGGUUAUCCGCUCGACCGAGAUCGGAAGAGCACACGU show?
**A:** 14.4

**Q:** Bench note: what Kd did target 1 G12A,U19G (mixed) RNA 1: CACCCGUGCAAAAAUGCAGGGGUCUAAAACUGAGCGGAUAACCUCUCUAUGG RNA 2: GGGAAUGGAUCCACAUCUACGAAUUCGUACCAGAGAGAGAUUAUCCGCUCACCGAGAUCGGAAGAGCACACGU show?
**A:** 54

**Q:** Bench note: what Kd did target 1 insG 3' of 8,insG 3' of 4 (mixed) RNA 1: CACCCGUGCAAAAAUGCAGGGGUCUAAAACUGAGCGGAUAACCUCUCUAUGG RNA 2: GGGAAUGGAUCCACAUCUACGAAUUCGUACCAUAGAGAGGUUAUGCCGCGUCACCGAGAUCGGAAGAGCACACGU show?
**A:** 7.1

**Q:** Bench note: what Kd did target 1 A1C,G12C (mixed) RNA 1: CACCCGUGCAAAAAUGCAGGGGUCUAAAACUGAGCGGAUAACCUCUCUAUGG RNA 2: GGGAAUGGAUCCACAUCUACGAAUUCGUACCAUAGAGAGCUUAUCCGCUCCCCGAGAUCGGAAGAGCACACGU show?
**A:** 19
